- experimentalSystem: ΔF508-CFTR (Homo sapiens, UniProt P13569, DEL508-508)
- Construct: host or cells: CFBE41o-, doxycycline-inducible
- Sequence (P13569 with tags, fused parts or gaps DEL508-508): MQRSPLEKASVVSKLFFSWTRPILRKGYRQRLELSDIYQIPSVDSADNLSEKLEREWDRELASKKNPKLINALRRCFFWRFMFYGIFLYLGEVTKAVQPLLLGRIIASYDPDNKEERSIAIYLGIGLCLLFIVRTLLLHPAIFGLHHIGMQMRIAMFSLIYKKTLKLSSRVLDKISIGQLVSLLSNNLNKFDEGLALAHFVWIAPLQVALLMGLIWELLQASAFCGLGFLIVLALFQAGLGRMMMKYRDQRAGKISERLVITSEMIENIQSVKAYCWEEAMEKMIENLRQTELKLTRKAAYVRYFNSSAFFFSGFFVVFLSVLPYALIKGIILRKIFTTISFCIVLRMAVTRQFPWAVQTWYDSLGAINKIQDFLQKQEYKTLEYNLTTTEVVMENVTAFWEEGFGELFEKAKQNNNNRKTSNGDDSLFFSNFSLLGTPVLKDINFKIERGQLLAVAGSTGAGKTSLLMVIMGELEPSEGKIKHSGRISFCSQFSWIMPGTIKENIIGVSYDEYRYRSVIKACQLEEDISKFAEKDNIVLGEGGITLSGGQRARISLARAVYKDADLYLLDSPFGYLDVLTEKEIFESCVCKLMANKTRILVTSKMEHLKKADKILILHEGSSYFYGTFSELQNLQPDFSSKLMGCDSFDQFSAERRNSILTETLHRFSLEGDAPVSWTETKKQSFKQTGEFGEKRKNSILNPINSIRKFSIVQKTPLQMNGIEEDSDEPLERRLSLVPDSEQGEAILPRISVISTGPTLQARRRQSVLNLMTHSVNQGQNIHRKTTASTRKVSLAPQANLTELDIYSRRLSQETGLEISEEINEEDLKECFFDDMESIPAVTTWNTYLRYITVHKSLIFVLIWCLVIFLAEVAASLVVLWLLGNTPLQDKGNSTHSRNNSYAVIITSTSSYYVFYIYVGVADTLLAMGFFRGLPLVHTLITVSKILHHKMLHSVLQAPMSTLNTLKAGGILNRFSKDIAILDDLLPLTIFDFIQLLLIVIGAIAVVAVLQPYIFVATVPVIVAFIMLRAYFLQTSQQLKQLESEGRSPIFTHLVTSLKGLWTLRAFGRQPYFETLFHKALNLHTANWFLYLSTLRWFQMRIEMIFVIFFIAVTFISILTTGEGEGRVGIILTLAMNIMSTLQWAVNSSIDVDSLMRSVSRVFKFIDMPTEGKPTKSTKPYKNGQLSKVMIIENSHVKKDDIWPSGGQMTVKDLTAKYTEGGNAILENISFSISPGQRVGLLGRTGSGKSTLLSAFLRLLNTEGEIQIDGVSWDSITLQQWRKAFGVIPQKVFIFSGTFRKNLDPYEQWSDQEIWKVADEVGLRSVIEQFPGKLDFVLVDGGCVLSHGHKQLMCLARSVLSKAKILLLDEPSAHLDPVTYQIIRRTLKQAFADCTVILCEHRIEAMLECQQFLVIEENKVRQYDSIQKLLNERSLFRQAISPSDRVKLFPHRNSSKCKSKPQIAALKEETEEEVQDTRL
- assay: CFTR cell surface levels using HRP-tagged ΔF508-CFTR expressing CFBE cells, in the presence of a co-corrector
- Type: cell-based
- conditionDetails: HRP-tagged ΔF508-CFTR CFBE cells, in the presence of 3 μM co-corrector; read-out: EC50
# EC50 per entry
Record the value in µM, omitting the unit from your answer.

Field: example entries. Status: answers known.
molecule: COCCN(CCOC)c1ccc(-c2cc(C(=O)NS(C)(=O)=O)nc3c2c(C(C)C)nn3C2CCCCC2)cn1 [Compound 121]
EC50 [µM]: 0.282
//
molecule: COCCS(=O)(=O)NC(=O)c1cc(N2CCN(C(C)C)CC2)c2c(C3CCC3)nn(-c3ccccc3)c2n1 [Compound 271]
EC50 [µM]: 1.02
//
molecule: COC[C@@H]1CCCN1C1CCN(S(=O)(=O)NC(=O)c2cc(N3CCC(N4CCOCC4)CC3)c3c(C4CCC4)nn(-c4ccccc4)c3n2)CC1 [Compound 439]
EC50 [µM]: 0.381

Answer with reported EC50 of COCCN(C)c1ccc(-c2cc(C(=O)NS(C)(=O)=O)nc3c2c(C(C)C)nn3-c2cccc(N3CCCC3)c2)cc1 [Compound 109] 0.634

----------
# pEC50 per entry
- experimentalSystem: ΔF508-CFTR (Homo sapiens, UniProt P13569, DEL508-508)
- Construct: host or cells: CFBE41o-, doxycycline-inducible
- assay: CFTR cell surface levels using HRP-tagged ΔF508-CFTR expressing CFBE cells, intrinsic corrector capacity
- Format: cell-based
- conditionDetails: HRP-tagged ΔF508-CFTR expressing CFBE41o- cells; compound alone (intrinsic corrector capacity); 20 hours at 33° C.; read-out: EC50
The meaning of pEC50 here: minus log10 of the concentration in molar units.

Field: example entries. Status: answers known.
givenSmiles: CS(=O)(=O)NC(=O)c1cc(-c2ccc(N3CCC(C#N)CC3)nc2)c2c(C3CCC3)nn(-c3ccnc(N4CCCC4)c3)c2n1
pEC50: 6.38
//
givenSmiles: COC1CN(c2cccc(-n3nc(C(C)C)c4c(-c5ccc(N6CCOCC6)cc5)cc(C(=O)NS(C)(=O)=O)nc43)c2)C1
pEC50: 6.38
//
givenSmiles: CNS(=O)(=O)NC(=O)c1cc(N2CCC(N3CCN(C4CC4)CC3)CC2)c2c(C3CCC3)nn(-c3ccccc3)c2n1
pEC50: 6.27
//
givenSmiles: COCCS(=O)(=O)NC(=O)c1cc(N2CCN(C(=O)OCC(C)C)CC2)c2c(C3CCC3)nn(-c3ccc(F)cc3)c2n1
pEC50: 6.60
//
givenSmiles: CC(C)c1nn(-c2ccc(F)cc2)c2nc(C(=O)NS(C)(=O)=O)cc(N3CCC(C4CCN(C)CC4)CC3)c12
pEC50: 6.51
//
givenSmiles: CC(C)c1nn(-c2ccc(F)cc2F)c2nc(C(=O)NS(C)(=O)=O)cc(-c3ccc(N4CCC(C#N)CC4)nc3)c12
pEC50: 6.13

Answer with reported pEC50 of CN(C)S(=O)(=O)NC(=O)c1cc(CN2CCC(N3CCOCC3)CC2)c2c(C3CCC3)nn(-c3ccc(F)cc3)c2n1 5.82

Answer with reported pEC50 of COCC1CCN(c2cc(C(=O)NS(=O)(=O)N3CCC[C@H]3C(=O)N3CCN(C)CC3)nc3c2c(C2CCC2)nn3-c2ccccc2)CC1 6.25

The measurements presented in this section are drawn from patent US10259810B2.
